Tested on: NCI-H460
PROTOCOL: Cytotoxicity against human NCI-H460 cells assessed as reduction in cell viability incubated for 48 hrs by MTT assay
Format: functional, cell-based
PROTOCOL CONDITIONS: NCI-H460, 48 h
pIC50: −log10 of the molar value.
Use 1 when the recorded pIC50 is no lower than 5; use 0 when it is lower.

[
  {
    "STRUCTURE": "COc1ccc(/C=C2\\CCC/C(=C\\c3ccc(OC)cc3)C2=O)cc1",
    "CLASS": 0
  },
  {
    "STRUCTURE": "COc1cccc(/C=C2\\CN(C)C/C(=C\\c3cccc(OC)c3)C2=O)c1",
    "CLASS": 1
  },
  {
    "STRUCTURE": "CN1C/C(=C\\c2ccccc2C(F)(F)F)C(=O)/C(=C/c2ccccc2C(F)(F)F)C1",
    "CLASS": 0
  },
  {
    "STRUCTURE": "COc1cccc(/C=C2\\CCC/C(=C\\c3cccc(OC)c3)C2=O)c1",
    "CLASS": 0
  },
  {
    "STRUCTURE": "O=C1/C(=C/c2ccccc2C(F)(F)F)CNC/C1=C\\c1ccccc1C(F)(F)F",
    "CLASS": 0
  }
]

Here is another compound to look at.
Prompt: Could you tell me if the measured pIC50 of O=C1/C(=C/c2ccccc2C(F)(F)F)CCC/C1=C\c1ccccc1C(F)(F)F reaches 5 or more?
Response: 0
